Source: PubChem BioAssay (NCI)

- run-description: NCI Yeast Anticancer Drug Screen. Data for the rad50 strain (AID 155);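 also: 0% = growth of vehicle-only cultures of the same strain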
- test-context: S. cerevisiae rad50 strain growth inhibition; at 50.0 µM
This is part of a sample that, as a whole, favours compounds with a hit. Of some 79,000 tested, about 15% had one in any assay. Calls of active or inactive are those of the source. Rule as the data show it: active = growth inhibition above about 70%; inactive = the rest.
A correct response names exactly one class from Y for active, N for inactive

Example cases with answers are listed next.
>  <compound>
O=[N+]([O-])c1ccc2nc(-c3ccccn3)c(-c3ccccn3)nc2c1

>  <answer-label>
N

$$$$
>  <compound>
COC(=O)[C@]1(C)CCC[C@]2(C)C3=C[C@@H](O)[C@@]4(C(C)C)O[C@H]4[C@]3(O)CC[C@@H]12

>  <answer-label>
N

$$$$
>  <compound>
COC(=O)c1cc(Cl)c(C(=O)OC)cc1Cl

>  <answer-label>
N

$$$$
>  <compound>
CCN(CC)CCCC(C)Nc1nncc2ccccc12 (configuration not stated)

>  <answer-label>
N

$$$$
>  <compound>
O=C(NC1CC1)c1ccccc1

>  <answer-label>
N

$$$$

Turning now to a further compound:
Query: Dear all, I need the recorded test outcome for COc1cc(C2SCCCCCCCCCCSC(c3ccc(O)c(OC)c3)SCCCCCCCCCCS2)ccc1O (configuration not stated) , thank you.
Result: N

###

- run-description: NCI Yeast Anticancer Drug Screen. Data for the sgs1 mgt1 strain (AID 161);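 also: 0% = growth of cultures given vehicle only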
- test-context: S. cerevisiae sgs1 mgt1 strain, at 50.0 µM, active compounds read high
This is part of a sample that, as a whole, favours compounds with a hit. Of some 79,000 tested, about 15% had one in any assay.
# growth inhibition values compiled below
Unit % implied. Number only.

>  <structure-notation>
O=C(c1ccc(F)cc1)c1c[nH]c(=O)[nH]c1=O

>  <growth inhibition [%]>
-7.85

$$$$
>  <structure-notation>
CCOC(=O)/C(C#N)=C/C=C1C=CN(C)C=C1

>  <growth inhibition [%]>
-1.4

$$$$
>  <structure-notation>
CCCCn1[nH]c(=O)ccc1=O

>  <growth inhibition [%]>
1.9

$$$$

Query: Need growth inhibition of CC(=O)N1C(=O)NC(=O)C1(C)C , thanks.
Result: 6.65

###

- run-description: NCI Yeast Anticancer Drug Screen. Data for the rad50 strain (AID 155);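 also: 0% = growth of vehicle-only cultures of the same strain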
- test-context: S. cerevisiae rad50 strain growth inhibition; at 50.0 µM; active compounds read high
- Method: Growth inhibition of yeast strains with defined genetic alterations is measured as a screen for potential anti-cancer activity. Selected strains with alterations in DNA damage repair or cell cycle control were exposed to compounds and growth inhibition was measured relative to vehicle treated controls. The strain used in this assay is rad50
About 79,000 compounds went through this panel and 15% of them were active in at least one assay; those are over-represented in the sample as a whole.
Recorded measurements of growth inhibition, one per entry
Number only, in %; omit the unit.

>  <molecule>
Nc1ncnc2c1ncn2C1CCN(CCO)C1=O (centres undefined)

>  <growth inhibition [%]>
-5.55

$$$$

Query: growth inhibition; subject: O/N=C(\C(=N/O)Nc1ccc(-c2ccc(NC(=N/O)/C(=N\O)c3ccccc3)cc2)cc1)c1ccccc1
Result: 7.35

Query: Quick check: growth inhibition of COC1CCCCC(=NNC(N)=O)CCCC1 (centres undefined) ?
Result: -0.2

Query: Return reported growth inhibition; argument: COc1nc2c(nc(N)n2C2OC(CO)C(O)C(O)C2O)c(=O)[nH]1 (centres undefined)
Result: -26.4
